Molecular target: Prothrombin (Homo sapiens)
pKi: −log10 of the molar value.
Entries and their measured pKi follow.

Please review the entries below; each comes with its answer.
CN(C)Cc1nccn1-c1ccc(CC(=O)c2cc(C(F)(F)F)nn2-c2ccc3onc(N)c3c2)cc1 :: 6.46
COc1ccc(-n2nc(C(F)(F)F)cc2C(=O)Cc2ccc(-c3ccccc3CN3CC[C@H](O)C3)cc2)cc1 :: < 5.20

API: the following record is the query input.
Query `COc1ccc(-n2nc(C(F)(F)F)cc2C(=O)Cc2ccc(-c3ccccc3S(N)(=O)=O)cc2F)cc1` yields pKi of < 4.68

---

pKi: −log10 of the molar value.
For UniProt:P00742, measured pKi is reported for the entries below.
Sequence (P00742 41-179 limits assumed): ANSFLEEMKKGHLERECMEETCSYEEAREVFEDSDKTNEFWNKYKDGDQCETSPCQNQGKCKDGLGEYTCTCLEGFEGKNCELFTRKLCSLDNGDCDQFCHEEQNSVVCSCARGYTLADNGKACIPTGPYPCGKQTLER
Sequence (P00742 235-488 limits assumed): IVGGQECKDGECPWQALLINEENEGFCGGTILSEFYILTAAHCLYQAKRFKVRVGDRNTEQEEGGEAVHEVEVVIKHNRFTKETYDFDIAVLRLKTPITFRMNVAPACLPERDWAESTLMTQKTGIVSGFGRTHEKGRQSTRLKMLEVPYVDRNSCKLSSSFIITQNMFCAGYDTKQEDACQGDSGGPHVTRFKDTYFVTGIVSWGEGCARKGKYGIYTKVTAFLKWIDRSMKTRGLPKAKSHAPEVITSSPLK
Measurement name: pKi

Here is how some compounds turned out for pKi.
Nc1noc2ccc(-n3nc(C(F)(F)F)cc3C(=O)Cc3ccc(N4CCCCC4=O)cc3)cc12 :: 9.47
CC(C(=O)c1cc(C(F)(F)F)nn1-c1ccc2onc(N)c2c1)c1ccc(-c2ccccc2S(N)(=O)=O)cc1 (racemic) :: 7.66
COc1ccc(-n2nc(C(F)(F)F)cc2C(=O)Cc2ccc(-c3ccccc3S(N)(=O)=O)cc2F)cc1 :: 8.16
CS(=O)(=O)c1ccccc1-c1ccc(CC(=O)c2cc(C(F)(F)F)nn2-c2ccc3onc(N)c3c2)c(F)c1 :: 10.15

[P] COc1ccc(-n2nc(C(F)(F)F)cc2C(=O)Cc2ccc(-n3ccccc3=O)cc2F)cc1
[Q] Nc1noc2ccc(-n3nc(C(F)(F)F)cc3C(=O)Cc3ccc(-n4ccccc4=O)cc3F)cc12
[R] COc1ccc(-n2nc(C(F)(F)F)cc2C(=O)Cc2ccc(-c3ccccc3S(N)(=O)=O)cc2)cc1
Problem: Sequence the entries by pKi, beginning with the highest number. Give the labels in the order requested.
Result: Q, P, R

---

Experiment: Oral bioavailability in dog at 0.2 mg/kg
Type: ADME, organism-based, Canis lupus familiaris
Conditions: in vivo
Measurement name: bioavailability (%)
State just the number; it will be interpreted in %.

Input `COc1ccc(-n2nc(C(N)=O)cc2C(=O)Cc2ccc(-n3ccccc3=O)cc2F)cc1` . Output bioavailability: 117

---

System: Plasma
Assay: Anticoagulant activity in human plasma assessed as concentration required to double prothrombin time
Type: functional
PT values, listed per item
Reply numerically in µM, unit not repeated.

Would you please look over these solved cases?
Nc1noc2ccc(-n3nc(C(F)(F)F)cc3C(=O)Cc3ccc(-c4ccccc4S(N)(=O)=O)cc3)cc12 :: 18
CS(=O)(=O)c1ccccc1-c1ccc(CC(=O)c2cc(C(F)(F)F)nn2-c2ccc3onc(N)c3c2)c(F)c1 :: 9
CN(C)Cc1ccccc1-c1ccc(CC(=O)c2cc(C(F)(F)F)nn2-c2ccc3onc(N)c3c2)c(F)c1 :: 5.8
CC(C(=O)c1cc(C(F)(F)F)nn1-c1ccc2onc(N)c2c1)c1ccc(-c2ccccc2S(N)(=O)=O)cc1F (racemic) :: 112
Nc1noc2ccc(-n3nc(C(F)(F)F)cc3C(=O)Cc3ccc(-n4ccccc4=O)cc3F)cc12 :: 11.6
COc1ccc(-n2nc(C(F)(F)F)cc2C(=O)Cc2ccc(-n3ccccc3=O)cc2F)cc1 :: 22

Now turn to the next compound.
The compound identified as `COc1ccc(-n2nc(C(F)(F)F)cc2C(=O)Cc2ccc(N3CCCCC3=O)cc2)cc1` registered its PT at 17
